- assayed-target: T1, CTLA-4 on human T lymphocytes (PBMC, CD3+ T cells) (human, UniProt P16410 36-223)
- T1 sequence (looked up): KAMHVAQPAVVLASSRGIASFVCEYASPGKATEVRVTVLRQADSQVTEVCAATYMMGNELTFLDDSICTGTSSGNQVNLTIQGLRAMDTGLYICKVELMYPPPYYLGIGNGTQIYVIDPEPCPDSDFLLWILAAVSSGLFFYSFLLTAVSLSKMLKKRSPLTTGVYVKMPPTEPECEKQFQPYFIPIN
- method-summary: cell-based or functional assay
Please provide measured IL-2 secretion, pg/ml, at 0.37 ug/ml, N = 2 for the entries that follow.
Numbers only, in pg/mL.

Batch request: IL-2 secretion, pg/ml, at 0.37 ug/ml, N = 2 per item, same order as input.
1. 97A8D1 fully human CTLA-4 antibody (human IgG1, kappa) (antibody, V domains shown, also called mAb49; mAb049) VH: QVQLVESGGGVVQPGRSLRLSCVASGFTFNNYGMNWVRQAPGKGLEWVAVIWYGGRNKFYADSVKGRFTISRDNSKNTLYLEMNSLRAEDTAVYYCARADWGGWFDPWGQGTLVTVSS VL: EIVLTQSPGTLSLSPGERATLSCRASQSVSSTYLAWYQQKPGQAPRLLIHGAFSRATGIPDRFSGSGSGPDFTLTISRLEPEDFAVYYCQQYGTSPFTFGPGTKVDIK
2. 92C8B6 fully human CTLA-4 antibody (human IgG1, kappa) (antibody, V domains shown, also called mAb42; mAb042) VH: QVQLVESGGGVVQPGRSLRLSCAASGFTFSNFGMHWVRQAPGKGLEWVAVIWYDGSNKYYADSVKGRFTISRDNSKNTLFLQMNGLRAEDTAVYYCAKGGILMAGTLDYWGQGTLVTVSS VL: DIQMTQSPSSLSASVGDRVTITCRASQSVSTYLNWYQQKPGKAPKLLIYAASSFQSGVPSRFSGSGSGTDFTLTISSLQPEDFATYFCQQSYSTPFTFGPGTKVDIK
3. 31C12F3 fully human CTLA-4 antibody (human IgG1, kappa) (antibody, V domains shown, also called mAb010) VH: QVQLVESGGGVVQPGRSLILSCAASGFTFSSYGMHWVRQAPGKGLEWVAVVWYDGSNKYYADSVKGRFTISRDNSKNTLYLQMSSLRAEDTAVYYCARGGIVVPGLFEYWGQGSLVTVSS VL: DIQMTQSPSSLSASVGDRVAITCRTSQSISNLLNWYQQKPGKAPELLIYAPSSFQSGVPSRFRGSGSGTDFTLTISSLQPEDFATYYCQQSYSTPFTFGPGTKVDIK

A)
[1960, 1860, 2000]
